Reported values of inhibition at 20 min, 10 µM for individual entries
Target: UniProt:P08684
Sequence (P08684 whole entry): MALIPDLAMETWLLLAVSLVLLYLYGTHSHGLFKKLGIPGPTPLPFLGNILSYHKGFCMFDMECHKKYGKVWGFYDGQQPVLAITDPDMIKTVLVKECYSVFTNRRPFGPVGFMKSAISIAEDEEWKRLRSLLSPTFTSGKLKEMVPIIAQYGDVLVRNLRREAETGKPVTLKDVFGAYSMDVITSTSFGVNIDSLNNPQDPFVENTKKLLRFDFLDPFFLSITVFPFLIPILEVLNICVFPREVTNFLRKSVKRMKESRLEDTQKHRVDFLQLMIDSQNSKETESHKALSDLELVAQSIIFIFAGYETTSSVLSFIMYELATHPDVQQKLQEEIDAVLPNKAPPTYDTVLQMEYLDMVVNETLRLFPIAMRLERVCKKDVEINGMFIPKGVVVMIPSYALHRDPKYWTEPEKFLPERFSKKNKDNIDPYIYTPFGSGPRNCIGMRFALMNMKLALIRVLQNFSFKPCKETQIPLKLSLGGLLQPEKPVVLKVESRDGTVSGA
Experiment: Inhibition of CYP3A4 in human liver microsomes at 10 uM after 20 mins in presence of NADPH by LC-MS/MS analysis
Type: ADME

Examples from the recorded data:
CC1(C)Cc2c(c(C(=O)Nc3ccccc3C(F)(F)F)cc3nc(Nc4c(F)cccc4Cl)[nH]c23)O1 :: 11%
Cc1cccc(Cl)c1Nc1nc2cc(C(=O)Nc3cc(C4CC4)ccc3F)c3c(c2[nH]1)CC(C)(C)O3 :: -13%
Cc1cc(C(F)(F)F)ccc1NC(=O)c1cc2nc(Nc3c(F)cccc3Cl)[nH]c2c2c1OC(C)(C)C2 :: 20%

input: Consider the compound shown here: CC1(C)Cc2c(c(C(=O)Nc3ccc(F)c(C(F)(F)F)c3)cc3nc(Nc4c(F)cccc4Cl)[nH]c23)O1 What is its recorded inhibition at 20 min, 10 µM?
output: 46%

input: Let us now turn to CC1(C)Cc2c(c(C(=O)Nc3ccc(C(F)(F)F)cc3F)cc3nc(Nc4c(F)cccc4Cl)[nH]c23)O1
output: 37%

input: Field entry: Cc1cccc(Cl)c1Nc1nc2cc(C(=O)Nc3ccc(C(F)(F)F)cc3)c3c(c2[nH]1)CC(C)(C)O3
output: 34%

input: Ok, now Cn1c(Nc2c(F)cccc2Cl)nc2cc(C(=O)Nc3ccc(C4CC4)cc3)c3c(c21)CC(C)(C)O3
output: 19%

input: Quick one: Cc1ccc(NC(=O)c2cc3nc(Nc4c(F)cccc4Cl)n(C)c3c3c2OC(C)(C)C3)c(F)c1
output: 23%

* * *

Target: UniProtKB P10635
Sequence (P10635 whole entry): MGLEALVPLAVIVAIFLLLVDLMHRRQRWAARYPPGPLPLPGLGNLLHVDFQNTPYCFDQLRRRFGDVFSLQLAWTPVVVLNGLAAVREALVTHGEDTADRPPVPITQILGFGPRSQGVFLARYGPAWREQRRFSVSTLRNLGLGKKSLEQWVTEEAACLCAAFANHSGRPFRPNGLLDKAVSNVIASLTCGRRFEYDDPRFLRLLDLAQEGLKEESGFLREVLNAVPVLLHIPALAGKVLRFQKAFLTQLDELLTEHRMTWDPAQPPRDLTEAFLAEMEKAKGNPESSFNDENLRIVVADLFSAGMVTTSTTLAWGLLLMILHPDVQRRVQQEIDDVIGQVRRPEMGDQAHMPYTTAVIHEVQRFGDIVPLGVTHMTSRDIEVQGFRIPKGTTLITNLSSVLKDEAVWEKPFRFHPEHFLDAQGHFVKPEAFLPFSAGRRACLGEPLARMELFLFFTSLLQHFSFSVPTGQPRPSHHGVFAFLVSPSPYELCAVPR
Test: Inhibition of CYP2D6 in human liver microsomes at 10 uM after 20 mins in presence of NADPH by LC-MS/MS analysis
Assay type: ADME
Settings: liver microsomes
Listed here are compounds together with their documented inhibition at 20 min, 10 µM.
Give the value in % but do not write % after it.

Worked set:
CC1(C)Cc2c(c(C(=O)Nc3cc(C(F)(F)F)ccc3F)cc3nc(Nc4c(F)cccc4Cl)[nH]c23)O1 :: 12
Cn1c(Nc2c(F)cccc2Cl)nc2cc(C(=O)Nc3ccc(C(F)(F)F)cc3)c3c(c21)CC(C)(C)O3 :: -5
CC1(C)Cc2c(c(C(=O)Nc3cc(C4CC4)ccc3F)cc3nc(Nc4c(F)cccc4Cl)[nH]c23)O1 :: 7
Cc1cccc(Cl)c1Nc1nc2cc(C(=O)Nc3cc(C4CC4)ccc3F)c3c(c2[nH]1)CC(C)(C)O3 :: 31

input: Look up inhibition at 20 min, 10 µM for this compound: Cn1c(Nc2c(F)cccc2Cl)nc2cc(C(=O)Nc3ccc(C(F)(F)F)cn3)c3c(c21)CC(C)(C)O3
output: 3

input: Entry Cc1cccc(Cl)c1Nc1nc2cc(C(=O)Nc3ccc(C(F)(F)F)cc3)c3c(c2[nH]1)CC(C)(C)O3 please
output: 6

input: Next compound: CC1(C)Cc2c(c(C(=O)Nc3cc(C4CC4)ccc3F)cc3nc(Nc4c(Cl)cccc4Cl)[nH]c23)O1
output: 5

input: What about this compound? CC1(C)Cc2c(c(C(=O)Nc3ccc(C(F)(F)F)cn3)cc3nc(Nc4c(Cl)cccc4Cl)[nH]c23)O1
output: 9

input: Now consider CC1(C)Cc2c(c(C(=O)Nc3cc(C(F)F)ccc3F)cc3nc(Nc4c(F)cccc4Cl)[nH]c23)O1 and answer again.
output: -1

input: Same again, this time with CC1(C)Cc2c(c(C(=O)Nc3ccc(F)c(C(F)(F)F)c3)cc3nc(Nc4c(F)cccc4Cl)[nH]c23)O1
output: 19

input: Here is the next compound: Cn1c(Nc2c(F)cccc2Cl)nc2cc(C(=O)Nc3ccc(C4CC4)cc3)c3c(c21)CC(C)(C)O3
output: 25

input: Now consider Cc1cccc(Cl)c1Nc1nc2cc(C(=O)Nc3cc(C(F)(F)F)ccc3F)c3c(c2[nH]1)CC(C)(C)O3 .
output: -2

input: And for Cc1cccc(Cl)c1Nc1nc2cc(C(=O)Nc3cc(C(F)F)ccc3F)c3c(c2[nH]1)CC(C)(C)O3 ?
output: 14

input: Further, for Cc1ccc(NC(=O)c2cc3nc(Nc4c(F)cccc4Cl)n(C)c3c3c2OC(C)(C)C3)c(F)c1 ?
output: 14

input: And the next one, Cn1c(Nc2c(F)cccc2Cl)nc2cc(C(=O)Nc3cccc(C(F)(F)F)c3)c3c(c21)CC(C)(C)O3 ?
output: 29

input: Please answer likewise for Cc1cc(C(F)(F)F)ccc1NC(=O)c1cc2nc(Nc3c(F)cccc3Cl)[nH]c2c2c1OC(C)(C)C2
output: 16

input: Repeat for the following compound: CC1(C)Cc2c(c(C(=O)Nc3ccccc3C(F)(F)F)cc3nc(Nc4c(F)cccc4Cl)[nH]c23)O1
output: 4

Reference for the values: ChEMBL document CHEMBL4219124
